Target Of Assay: T1, class I MHC receptor HLA-A2 on T2 cells (human)
T1 construct: detected on the cell surface with a mouse anti-human HLA-A2 monoclonal antibody and goat anti-mouse IgG F(ab')2-FITC; also called HLA-A2 receptor; HLA-A2 class I MHC
Assay Name: T2 cells, anti-HLA-A2 flow cytometry after brefeldin A; Assay #2; 18 hr
The entries below come with measured fluorescence index values attached.

Binder	fluorescence index
KLILGLVWT [Filamin B peptide #7]	1 F.I.
SLQESGLKV [Filamin B peptide #4]	1 F.I.
GQGDVMVFV [Filamin B peptide #6]	1 F.I.
LILGLVWTL [Filamin B peptide #1]	1.35 F.I.
GLAPLEVRV [Filamin B peptide #3]	2.1 F.I.
